- Tested on: Candida albicans
- Procedure Text: Antibiofilm activity against fluconazole-resistant Candida albicans DAY185 assessed as inhibition of biofilm formation at 1 ug/ml measured after 24 hrs by crystal violet staining based analysis relative to control
- Format: functional
Quantity Name: inhibition at 1 µg/mL (%)
# unit: % | format: bare number

Q) Reported inhibition at 1 µg/mL for Clc1ccc(CCC(Cn2ccnc2)Sc2c(Cl)cccc2Cl)cc1 (centres undefined) [BUTOCONAZOLE] : what is it?
A) 56

Could you now consider this next compound?
Q) Returns the measured inhibition at 1 µg/mL for the input compound. Input: C[C@@H]1[C@H](O)[C@@H](C)/C=C/C=C/C=C/C=C/C=C/C=C/C=C/[C@H](O[C@@H]2O[C@H](C)[C@@H](O)[C@H](N)[C@@H]2O)C[C@@H]2O[C@](O)(C[C@@H](O)C[C@@H](O)[C@H](O)CC[C@@H](O)C[C@@H](O)CC(=O)O[C@H]1C)C[C@H](O)[C@H]2C(=O)O [AMPHOTERICIN B]
A) 96

====

- System: Candida albicans
- Procedure Text: Antibiofilm activity against fluconazole-resistant Candida albicans DAY185 assessed as inhibition of biofilm formation at 50 ug/ml measured after 24 hrs by crystal violet staining based analysis relative to control
- Format: functional
Catalogue of inhibition at 50 µg/mL values

Q) # inhibition at 50 µg/mL lookup, item Clc1nc(Cl)c2c(Br)c[nH]c2n1
A) > 95%

Q) Looking for the measured inhibition at 50 µg/mL of Clc1c[nH]c2ncnc(Cl)c12 , can you help?
A) > 85%

Q) Which inhibition at 50 µg/mL value is on record for Clc1ncnc2[nH]cc(I)c12 ?
A) > 95%

Q) # input compound: Clc1nc(Cl)c2c(I)c[nH]c2n1 ; wanted: its inhibition at 50 µg/mL
A) > 85%

Further cases:
Q) Bench note: what inhibition at 50 µg/mL did Clc1ncnc2[nH]cc(Br)c12 show?
A) > 85%
